# Tested on: genotype 2a J6 strain NS5A gene (M31 present)
# Assay Comment: Replicon assay, NS5A chimeric 2a JFH-1 replicon with 2a J6 NS5A, transient (t) or stable (s), Huh-Lunet cells
# Assay type: cell-based, HCV
# Condition Summary: Hepatitis C virus, read-out: 2a J6 (s) (nM)
Reported Endpoint: EC50 (nM)
The response must be a number in nM with no trailing unit.

Short answer for COC(=O)NC(C(=O)N1CCCC1c1nc2ccc3cc4c(cc3c2[nH]1)OCc1cc(-c2cnc(C3CCCN3C(=O)C(NC(=O)O)C(C)C)[nH]2)ccc1-4)c1ccccc1 (stereo not shown) : EC50 was 0.543
